Test system: Hepatitis B virus
Experiment: Antiviral activity against Hepatitis B virus infected in human HepG2(2.2.15) cells assessed as inhibition of viral replication incubated for 2 days followed by wash out measured after 10 days by RT-PCR analysis
Type: functional, organism-based
pEC50: −log10 of the molar value.
Mark Yes for reported pEC50 of 5 or greater; mark No for anything smaller.

Known results for molecules:
1) CC[C@H](C)[C@H](N)C(=O)SCCCOP(=O)(COCCn1cnc2c(N)ncnc21)OCCCOC(=O)C(C)c1cccc(C(=O)c2ccccc2)c1 (some centres not stated) :: No
2) CC(C(=O)OCCCOP(=O)(COCCn1cnc2c(N)ncnc21)OCCOC(=O)[C@@H](N)C(C)C)c1cccc(C(=O)c2ccccc2)c1 (some centres not stated) :: Yes
3) CC[C@H](C)[C@H](N)C(=O)OCCOP(=O)(COCCn1cnc2c(N)ncnc21)OCCCOC(=O)C(C)c1cccc(C(=O)c2ccccc2)c1 (some centres not stated) :: Yes
4) CC(C)Cc1ccc(C(C)C(=O)OCCCOP(=O)(COCCn2cnc3c(N)ncnc32)OCCCSC(=O)[C@@H](N)C(C)C)cc1 (some centres not stated) :: No

Attention now shifts to the item below.
Enquiry: Hi, just wondering whether CC(C(=O)OCCCOP(=O)(COCCn1cnc2c(N)ncnc21)OCCCSC(=O)[C@@H](N)C(C)C)c1cccc(C(=O)c2ccccc2)c1 (some centres not stated) shows pEC50 of 5 or higher.
Return: No

src = ChEMBL document CHEMBL1944632
